Target: mouse GLP-1 receptor (mouse) (UniProt O35659)
Sequence (O35659 22-463): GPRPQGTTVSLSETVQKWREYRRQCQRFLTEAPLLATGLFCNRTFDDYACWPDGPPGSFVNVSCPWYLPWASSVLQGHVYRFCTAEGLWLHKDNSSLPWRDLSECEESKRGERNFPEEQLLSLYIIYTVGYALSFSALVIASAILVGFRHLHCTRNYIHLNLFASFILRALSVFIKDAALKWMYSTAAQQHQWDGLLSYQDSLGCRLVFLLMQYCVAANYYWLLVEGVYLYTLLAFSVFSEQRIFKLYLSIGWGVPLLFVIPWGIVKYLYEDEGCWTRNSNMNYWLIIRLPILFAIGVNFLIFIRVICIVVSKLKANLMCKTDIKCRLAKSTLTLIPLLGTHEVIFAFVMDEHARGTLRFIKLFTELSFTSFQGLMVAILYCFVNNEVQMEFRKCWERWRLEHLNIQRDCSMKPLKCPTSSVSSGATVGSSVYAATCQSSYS
Assay: cell-based or functional assay
MEASURE NAME: cAMP EC50 (nM)
Output spec: scalar in nM, unitless text.

Supply reported cAMP EC50 belonging to this binder: IP301 (Fc fusion) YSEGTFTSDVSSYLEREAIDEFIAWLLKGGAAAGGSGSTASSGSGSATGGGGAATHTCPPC
1.9

Dear colleague, please send me the reported cAMP EC50 for IP275 (Fc fusion) YSEGTFTSDYSKLLEKEAQRLFIEWLLKGPGGGGGSGGGGSGGGGSGGGGSATHTCPPC when you can.
1.7

# return recorded cAMP EC50 for entry IP309 (Fc fusion) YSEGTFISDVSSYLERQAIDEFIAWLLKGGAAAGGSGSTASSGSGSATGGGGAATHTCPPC
16

Please look at this binder and report its cAMP EC50: IP359 (Fc fusion) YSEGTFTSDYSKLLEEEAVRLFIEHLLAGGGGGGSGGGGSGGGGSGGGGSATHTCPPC
0.2

Please look at this binder and report its cAMP EC50: IP331 (Fc fusion) YSEGTFTSDYSKLLERQAIDEFIADLLKGGGGGGGSGGGGSGGGGSGGGGSGGGGSGGGGSA
22

Check the records and state cAMP EC50 for IP250 (Fc fusion) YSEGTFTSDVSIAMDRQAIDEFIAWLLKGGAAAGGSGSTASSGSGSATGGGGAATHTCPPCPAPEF
22
